# test-name: Half life in iv dosed rat
# Assay type: ADME, organism-based
# experimental-context: in vivo
property-name: half-life
Just so you know, I need the unit written after the number.

Input COC(=O)N[C@H](C(=O)N1C[C@@H](C)C[C@H]1c1nc(-c2ccc(-c3ccc(-c4ccc5[nH]c([C@@H]6C[C@H](C)CN6C(=O)[C@@H](NC(=O)OC)C(C)C)nc5c4)cc3)cc2)c[nH]1)C(C)C . Output half-life: 2 h

----------
# test-name: Protein binding in rat plasma
# Type: ADME, cell-free
# experimental-context: read-out: PPB (converted)
property-name: fraction unbound
// return just the number, without any unit appended

Input COC(=O)N[C@H](C(=O)N1C[C@@H](C)C[C@H]1c1nc(-c2ccc(-c3ccc(-c4ccc5[nH]c([C@@H]6C[C@H](C)CN6C(=O)[C@@H](NC(=O)OC)C(C)C)nc5c4)cc3)cc2)c[nH]1)C(C)C . Output fraction unbound: 0.083
